- System: Mel-DCC-11-R
- ASSAY OVERVIEW: cell viability relative to DMSO control (fraction of DMSO control); higher = less cytotoxic, active = 0.8 or less
- CONDITIONS: 1 µM; 120 h; vemurafenib co-treatment 0 µM
Listed here: items and their measured cell viability.
Reply with the value as a number alone.

// solved cases for cell viability follow
COMPOUND: COc1cc2c(N3CCN(C(=O)Nc4ccc(OC(C)C)cc4)CC3)ncnc2cc1OCCCN1CCCCC1
READOUT VALUE: 0.907

COMPOUND: C=C1CC[C@@H]2[C@](C)(CO)[C@H](O)CC[C@@]2(C)[C@@H]1C/C=C1/C(=O)OC[C@H]1O [Andrographolide]
READOUT VALUE: 0.887

COMPOUND: COc1cc([C@@H]2c3cc4c(cc3[C@@H](O[C@@H]3O[C@@H]5CO[C@@H](C)O[C@H]5[C@H](O)[C@H]3O)C3COC(=O)C32)OCO4)cc(OC)c1O (stereo partly specified) [Etoposide]
READOUT VALUE: 1.26

COMPOUND: Nc1nc(Cl)nc2c1ncn2[C@@H]1O[C@H](CO)[C@@H](O)[C@@H]1F
READOUT VALUE: 0.91

COMPOUND: CC(C)[C@H](NC(=O)[C@H](CC(=O)O)NC(=O)[C@H](CCCCN)NC(=O)[C@@H](N)CCCNC(=N)N)C(=O)N[C@@H](Cc1ccc(O)cc1)C(=O)O
READOUT VALUE: 1.21

Proceeding to the next compound to report its cell viability.
Entry Cc1ccc(-c2ncc(Cl)cc2-c2ccc(S(C)(=O)=O)cc2)cn1 : cell viability on Mel-DCC-11-R = 1.11

* * *

Listed here: items and their measured cell viability.
- System: NHEM-hTERT
- ASSAY OVERVIEW: cell viability relative to DMSO control (fraction of DMSO control); higher = less cytotoxic, active = 0.5 or less
- CONDITIONS: 1 µM; 120 h
Reply with the value as a number alone.

// solved cases for cell viability follow
MOLECULE: Nc1c2ccccc2nc2ccccc12 [Aminacrine]
TEST TARGET: NHEM-hTERT
cell viability: 0.915

MOLECULE: COc1cccc2c1C(=O)c1c(O)c3c(c(O)c1C2=O)C[C@@](O)(C(=O)CO)C[C@@H]3O[C@H]1C[C@H](N)[C@H](O[C@H]2CCCCO2)[C@H](C)O1 [Pirarubicin]
TEST TARGET: NHEM-hTERT
cell viability: 0.839

MOLECULE: Nc1ccccc1NC(=O)c1ccc(CNc2nccc(-c3cccnc3)n2)cc1 [Mocetinostat]
TEST TARGET: NHEM-hTERT
cell viability: 0.55

Sample CCOC(N)=O [Urethane] ; cell viability observed: 1.09

Sample CC(C)CN(C[C@@H](O)[C@H](Cc1ccccc1)NC(=O)O[C@H]1CCOC1)S(=O)(=O)c1ccc(N)cc1 [Amprenavir] ; cell viability observed: 0.952

Sample COc1ccc2cc1Oc1ccc(cc1)C[C@H]1c3c(cc4c(c3Oc3cc5c(cc3OC)CCN(C)[C@@H]5C2)OCO4)CCN1C [Cepharanthine] ; cell viability observed: 1.13

Sample CC1(C)NC(=O)N(c2ccc([N+](=O)[O-])c(C(F)(F)F)c2)C1=O [Nilutamide] ; cell viability observed: 1.19

Sample CCc1cc2c(cc1N1CCC(N3CCOCC3)CC1)C(C)(C)c1[nH]c3cc(C#N)ccc3c1C2=O [Alectinib] ; cell viability observed: 0.977

Sample COc1cc(N2CCC(N3CCN(C)CC3)CC2)ccc1Nc1ncc(Cl)c(Nc2ccccc2P(C)(C)=O)n1 [Brigatinib] ; cell viability observed: 0.91

Sample C=CC(=O)Nc1cc(Nc2nccc(-c3cn(C)c4ccccc34)n2)c(OC)cc1N(C)CCN(C)C [Osimertinib] ; cell viability observed: 1.16

Sample c1cn2cc(-c3ccc4cn[nH]c4c3)nc(Nc3ccc(N4CCOCC4)cc3)c2n1 [Entospletinib] ; cell viability observed: 0.558
